binders and their reported IC50, RGA 1
Target: T1, murine IL-11 (mouse, UniProt P47873 22-199)
T1 sequence: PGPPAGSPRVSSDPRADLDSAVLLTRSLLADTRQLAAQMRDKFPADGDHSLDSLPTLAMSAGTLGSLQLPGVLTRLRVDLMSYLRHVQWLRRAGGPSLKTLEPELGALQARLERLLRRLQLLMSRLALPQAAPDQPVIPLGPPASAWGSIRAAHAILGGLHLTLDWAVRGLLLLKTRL
Assay: cell-based or functional assay
Write the number in nM without appending the unit.

[[record]]
binder = "TPP-31301 (antibody, IgG4, V domains shown) VH: EVQLLESGGGLVQPGGSLRLSCAASGFTFSHYDMNWLRQAPGKGLEWVGVISYEGSNKFYADFVKGRFTISRDNSKNTLYLQMNSLRAEDTAVYYCARTPGSHFDYWGQGTLVTVSS VL: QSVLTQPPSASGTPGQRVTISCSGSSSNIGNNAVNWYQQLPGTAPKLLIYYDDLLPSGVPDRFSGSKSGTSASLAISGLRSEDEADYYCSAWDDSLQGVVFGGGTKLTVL"
unit_string = "nM"
value_measured = 4.43


# input for lookup
Returns the measured IC50, RGA 1 for the input binder. Input: TPP-31293 (antibody, IgG4, V domains shown, hIgG4 SPLE, lambda) VH: EVQLLESGGGLVQPGGSLRLSCAASGFTFSHYDMNWVRQAPGKGLEWVGVISYDGSNKFYADFVKGRFTISRDNSKNTLYLQMNSLRAEDTAVYYCARTPGSHFDYWGQGTLVTVSS VL: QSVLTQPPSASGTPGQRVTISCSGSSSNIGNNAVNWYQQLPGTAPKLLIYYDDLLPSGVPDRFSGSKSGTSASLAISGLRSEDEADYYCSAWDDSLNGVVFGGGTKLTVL 31
